Measurement protocol: Lipophilicity, log D of the compound at pH 7.4
Format: physicochemical
Assay setup: buffer
Result type: logD

Take a look at these entries with their results.
[
  {
    "Smiles input": "O=C(O)C[C@H]1CC[C@H](c2ccc(-c3ccc(Nc4ccc(C(F)(F)F)nc4)cn3)cc2)CC1",
    "Result type": "logD",
    "Endpoint result": 3.6
  },
  {
    "Smiles input": "O=C(O)CC12CCC(c3ccc(-c4ccc(Nc5nnc(C6CCC6)o5)cc4)cc3)(CC1)CO2",
    "Result type": "logD",
    "Endpoint result": 2.4
  }
]

[P] O=C(O)C[C@H]1CC[C@H](c2ccc(-c3ccc(Nc4nnc(C5CCC5)o4)cn3)cc2)CC1
[Q] O=C(O)CC12CCC(c3ccc(-c4ccc(Nc5nnc(C6CCC6)o5)cn4)cc3)(CC1)CO2
[R] CC(C)c1nnc(Nc2ccc(-c3ccc(N4CCC(CC(=O)O)CC4)cc3)nc2)o1
Kindly order the items shown according to logD, from the highest value down. Record the ranking as a list of labels in the requested order.
P, Q, R

* * *

Measurement protocol: Permeability across apical to basolateral side in human Caco2 cells
Format: ADME, cell-based
Assay setup: Caco-2, read-out: permeability
Result type: Papp A→B (×10⁻⁶ cm/s)

[
  {
    "Smiles input": "O=C(O)CC12CCC(c3ccc(-c4ccc(Nc5nnc(C6CCC6)o5)cc4)cc3)(CC1)CO2",
    "Measurement unit": "×10⁻⁶ cm/s",
    "Papp A→B": 5.9
  }
]

[a] CCc1nc(C)c(C(=O)Nc2ccc(-c3ccc(C45CCC(CC(=O)O)(CC4)OC5)cc3)cc2)o1
[b] O=C(O)C[C@H]1CC[C@H](c2ccc(-c3ccc(Nc4ccc(C(F)(F)F)nc4)cn3)cc2)CC1
Higher Papp A→B between a and b ? # answer = label of selected item
a
(a: 18.3 ×10⁻⁶ cm/s, b: 8.1 ×10⁻⁶ cm/s)

* * *

Measurement protocol: Dissociation constant, pKa of compound
Type: physicochemical
Result type: pKa

[
  {
    "Smiles input": "O=C(O)CC12CCC(c3ccc(-c4ccc(Nc5nnc(C6CCC6)o5)cn4)cc3)(CC1)CO2",
    "pKa": 3.9
  },
  {
    "Smiles input": "O=C(O)C[C@H]1CC[C@H](c2ccc(-c3ccc(Nc4ccc(C(F)(F)F)nc4)cn3)cc2)CC1",
    "pKa": 4.1
  },
  {
    "Smiles input": "CC(C)c1nnc(Nc2ccc(-c3ccc(N4CCC(CC(=O)O)CC4)cc3)nc2)o1",
    "pKa": 3.8
  }
]

* * *

Tested target: Diacylglycerol O-acyltransferase 1 (Mus musculus)
Sequence (Q9Z2A7 whole entry): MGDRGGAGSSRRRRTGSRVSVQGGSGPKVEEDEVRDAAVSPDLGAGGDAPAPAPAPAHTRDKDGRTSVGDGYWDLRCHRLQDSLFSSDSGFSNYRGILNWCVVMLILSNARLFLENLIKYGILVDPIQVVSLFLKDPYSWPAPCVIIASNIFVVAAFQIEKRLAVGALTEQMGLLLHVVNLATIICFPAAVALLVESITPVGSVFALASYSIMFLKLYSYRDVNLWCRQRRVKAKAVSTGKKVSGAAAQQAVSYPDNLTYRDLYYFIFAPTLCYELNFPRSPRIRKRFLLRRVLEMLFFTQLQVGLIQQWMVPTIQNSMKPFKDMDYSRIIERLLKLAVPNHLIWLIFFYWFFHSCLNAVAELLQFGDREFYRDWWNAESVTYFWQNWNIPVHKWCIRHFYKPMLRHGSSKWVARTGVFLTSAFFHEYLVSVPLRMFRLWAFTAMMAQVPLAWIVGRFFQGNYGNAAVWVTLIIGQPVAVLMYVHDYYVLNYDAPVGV
Measurement protocol: Inhibition of DGAT1 in mouse C2C12 cells assessed as reduction in intracellular triglyceride production incubated for 2 hrs in presence of BSA-complexed oleate by LC/MS/MS analysis
pEC50: −log10 of the molar value.
Result type: pEC50

Take a look at these entries with their results.
[
  {
    "Smiles input": "CCc1nc(C)c(C(=O)Nc2ccc(-c3ccc([C@H]4CC[C@H](CC(=O)O)CC4)cc3)nc2)o1",
    "Tested target": "Diacylglycerol O-acyltransferase 1 (Mus musculus)",
    "pEC50": 8.10
  },
  {
    "Smiles input": "O=C(O)C[C@H]1CC[C@H](c2ccc(-c3ccc(Nc4nnc(C5CCC5)s4)cn3)cc2)CC1",
    "Tested target": "Diacylglycerol O-acyltransferase 1 (Mus musculus)",
    "pEC50": 8.10
  }
]

[1] O=C(O)C[C@H]1CC[C@H](c2ccc(-c3ccc(Nc4ccc(C(F)(F)F)nc4)cn3)cc2)CC1
[2] O=C(O)C[C@H]1CC[C@H](c2ccc(-c3ccc(Nc4nnc(C5CCC5)o4)cn3)cc2)CC1
[3] CCc1nnc(Nc2ccc(-c3ccc([C@H]4CC[C@H](CC(=O)O)CC4)cc3)nc2)o1
[4] CC(C)c1nnc(Nc2ccc(-c3ccc(N4CCC(CC(=O)O)CC4)cc3)nc2)o1
[5] Cc1nnc(Nc2ccc(-c3ccc([C@H]4CC[C@H](CC(=O)O)CC4)cc3)nc2)o1
Kindly order the items shown according to pEC50, from the highest value down. Record the ranking as a list of labels in the requested order.
2, 3, 1, 5, 4

* * *

Measurement protocol: AUC (0 to 24 hrs) in Sprague-Dawley rat at 0.5 mg/kg, iv measured upto 24 hrs
Type: ADME, organism-based
Set-up: time < 24 hr, dose 0.5 mg/kg, route intravenous
Assay setup: in vivo
Result type: AUC(0-t) at 24 h (µM·h)

[1] O=C(O)CC12CCC(c3ccc(-c4ccc(Nc5nnc(C6CCC6)o5)cc4)cc3)(CC1)CO2
[2] CCc1nc(C)c(C(=O)Nc2ccc(-c3ccc(C45CCC(CC(=O)O)(CC4)OC5)cc3)cc2)o1
Higher AUC(0-t) at 24 h between 1 and 2 ? # answer = label of selected item
2
(2: 51.4 µM·h, 1: 5.16 µM·h)
